The origin of these recorded values is patent US20260042764A1.

target: Avi-KRAS G12V (1-169) GppNHp/RAF1 RBD-3xFLAG (52-151) (Homo sapiens, UniProt P01116, G12V); construct: Avi-KRAS G12V (1-169); assay: Raf1-KRAS G12V-GppNHP disruption HTRF assay (Biological Example 1); assay type: binding; details: KRAS G12V-GppNHp/RAF1 RBD HTRF
Sequence (P01116 1-169 isoform P01116-2 G12V): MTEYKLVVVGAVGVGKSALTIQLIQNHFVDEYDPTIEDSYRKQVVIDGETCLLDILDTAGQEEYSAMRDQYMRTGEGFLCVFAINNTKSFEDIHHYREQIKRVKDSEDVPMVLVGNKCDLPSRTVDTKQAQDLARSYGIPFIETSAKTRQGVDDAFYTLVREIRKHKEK
pIC50: −log10 of the molar value.
readoutLabel: pIC50

>  <recordSmiles>
CN(c1nc(OC[C@@]23CCCN2C[C@H](F)C3)nc2c(F)c(-c3ccc(F)c4sc(N)c(C#N)c34)c(C(F)(F)F)cc12)C1CCS(=O)(=O)CC1

>  <system>
Avi-KRAS G12V (1-169) GppNHp/RAF1 RBD-3xFLAG (52-151) (Homo sapiens, UniProt P01116, G12V)

>  <resultValue>
5.00 to 6.00

$$$$
>  <recordSmiles>
CN(C)C(=O)[C@@H]1CN(c2nc(OC[C@@]34CCCN3C[C@H](F)C4)nc3c(F)c(-c4ccc(F)c5sc(N)c(C#N)c45)c(C(F)(F)F)cc23)CCO1

>  <system>
Avi-KRAS G12V (1-169) GppNHp/RAF1 RBD-3xFLAG (52-151) (Homo sapiens, UniProt P01116, G12V)

>  <resultValue>
5.00 to 6.00

$$$$
>  <recordSmiles>
CCN(c1nc(OC[C@@]23CCCN2C[C@H](F)C3)nc2c(F)c(-c3ccc(F)c4sc(N)c(C#N)c34)c(C(F)(F)F)cc12)[C@H]1CC(=O)N(C(C)C)C1

>  <system>
Avi-KRAS G12V (1-169) GppNHp/RAF1 RBD-3xFLAG (52-151) (Homo sapiens, UniProt P01116, G12V)

>  <resultValue>
5.00 to 6.00

$$$$
>  <recordSmiles>
CC(=O)N1C[C@@H]2CC[C@H]1CN2c1nc(OC[C@@]23CCCN2C[C@H](F)C3)nc2c(F)c(-c3ccc(F)c4sc(N)c(C#N)c34)c(C(F)(F)F)cc12

>  <system>
Avi-KRAS G12V (1-169) GppNHp/RAF1 RBD-3xFLAG (52-151) (Homo sapiens, UniProt P01116, G12V)

>  <resultValue>
5.00 to 6.00

$$$$

Prompt line: Assign pIC50 to the following record: C[C@@H]1C[C@H](N(C)c2nc(OC[C@@]34CCCN3C[C@H](F)C4)nc3c(F)c(-c4ccc(F)c5sc(N)c(C#N)c45)c(C(F)(F)F)cc23)CN1C(=O)C1CC1
Response line: 6.00 to 7.00
